# experimental.system: T1, GIP receptor (UniProt P48546 22-466, limits assumed)
# T1 sequence (looked up): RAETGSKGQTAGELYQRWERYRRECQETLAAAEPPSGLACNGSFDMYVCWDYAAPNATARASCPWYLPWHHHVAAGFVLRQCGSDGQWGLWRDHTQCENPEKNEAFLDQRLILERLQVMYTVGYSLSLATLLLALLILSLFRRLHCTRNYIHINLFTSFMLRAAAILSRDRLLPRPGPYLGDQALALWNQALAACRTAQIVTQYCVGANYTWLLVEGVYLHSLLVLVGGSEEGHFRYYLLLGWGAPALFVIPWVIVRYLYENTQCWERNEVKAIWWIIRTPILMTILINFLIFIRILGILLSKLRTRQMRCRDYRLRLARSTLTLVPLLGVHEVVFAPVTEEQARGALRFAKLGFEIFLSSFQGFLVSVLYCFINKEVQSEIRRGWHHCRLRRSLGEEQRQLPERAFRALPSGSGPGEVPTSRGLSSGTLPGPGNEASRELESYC
# procedure.text: cell-based or functional assay
Bridges are numbered along the chain shown (N, C = ends). Where no end group is shown, it is not given here. [ ]: non-standard residue; d: D form. Aib = CC(C)(N)C(=O)O
# if measured EC50 (cAMP reporter) < 20 pM: yes  # else: no

// query Here's an entry: Y[Aib]QGTFTSDYSIYLDKKAA[Aib]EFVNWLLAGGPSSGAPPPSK-NH2 [mt-402 (SEQ ID NO: 11)] . Is its EC50 (cAMP reporter) below 20 pM?
// result yes

// query Take the binder HSQGTFISDYSKALDEIHQKEFIAWLMNT-NH2 (lactam 16-20; not fully specified (residue 2); also: AIB at position 2 and position 20 (given S and K), any further modification only) [mt-404 (SEQ ID NO: 13)] and say whether its EC50 (cAMP reporter) is less than 20 pM.
// result no

// query Regarding HSQGTFISDYSKYLDEIHQKEFIAWLMNT-NH2 (lactam 16-20; not fully specified (residue 2); also: AIB at position 2 and position 20 (given S and K), any further modification only) [mt-403 (SEQ ID NO: 12)] , kindly confirm whether its EC50 (cAMP reporter) is beneath 20 pM.
// result yes

// query # check: EC50 (cAMP reporter) < 20 pM for Y[Aib]QGTFTSDYSKYLDEIHQKDFVNWLLAQ-NH2 (not fully specified (residue 20)) [mt-405 (SEQ ID NO: 14)]
// result yes

// query Regarding Y[Aib]EGTFTSDYSIYLDKQAA[Aib]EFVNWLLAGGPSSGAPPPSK-NH2 [mt-263 (SEQ ID NO: 10)] , kindly confirm whether its EC50 (cAMP reporter) is beneath 20 pM.
// result yes

This collection of values is drawn from patent US20120238493A1.
